Hi there, I'd appreciate the recorded activation at 0.1 µM for every entry that follows.
# assayed-target: GABAA receptors (α5β2γ2) (Homo sapiens, UniProt P18507+P31644)
# Construct: expressed in transfected cells
# Sequence (P31644 32-462): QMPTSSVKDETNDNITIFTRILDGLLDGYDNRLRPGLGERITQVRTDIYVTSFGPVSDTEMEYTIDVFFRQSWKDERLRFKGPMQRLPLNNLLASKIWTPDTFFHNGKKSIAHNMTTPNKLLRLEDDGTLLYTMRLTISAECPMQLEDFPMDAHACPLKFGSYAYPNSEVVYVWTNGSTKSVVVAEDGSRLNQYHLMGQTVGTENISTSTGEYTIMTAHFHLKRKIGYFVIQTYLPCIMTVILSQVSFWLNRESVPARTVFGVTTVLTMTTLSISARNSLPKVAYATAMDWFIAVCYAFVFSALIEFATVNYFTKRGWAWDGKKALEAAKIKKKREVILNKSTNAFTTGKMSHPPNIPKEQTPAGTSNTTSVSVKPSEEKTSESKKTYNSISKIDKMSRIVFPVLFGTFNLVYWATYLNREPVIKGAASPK
# Sequence (P47870 25-512, further chain): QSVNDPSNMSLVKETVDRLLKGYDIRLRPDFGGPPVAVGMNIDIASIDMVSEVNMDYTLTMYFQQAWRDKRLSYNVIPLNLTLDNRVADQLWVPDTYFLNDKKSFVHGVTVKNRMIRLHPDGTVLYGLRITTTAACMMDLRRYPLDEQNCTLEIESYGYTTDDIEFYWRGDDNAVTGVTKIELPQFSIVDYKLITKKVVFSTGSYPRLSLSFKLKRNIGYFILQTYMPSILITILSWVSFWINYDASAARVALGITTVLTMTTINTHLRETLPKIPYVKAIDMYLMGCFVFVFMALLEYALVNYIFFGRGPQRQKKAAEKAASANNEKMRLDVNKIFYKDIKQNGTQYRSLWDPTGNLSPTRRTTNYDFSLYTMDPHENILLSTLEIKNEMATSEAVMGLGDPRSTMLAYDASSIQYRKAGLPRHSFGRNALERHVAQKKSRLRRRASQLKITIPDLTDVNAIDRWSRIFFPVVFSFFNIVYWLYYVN
# Sequence (P18507 40-475): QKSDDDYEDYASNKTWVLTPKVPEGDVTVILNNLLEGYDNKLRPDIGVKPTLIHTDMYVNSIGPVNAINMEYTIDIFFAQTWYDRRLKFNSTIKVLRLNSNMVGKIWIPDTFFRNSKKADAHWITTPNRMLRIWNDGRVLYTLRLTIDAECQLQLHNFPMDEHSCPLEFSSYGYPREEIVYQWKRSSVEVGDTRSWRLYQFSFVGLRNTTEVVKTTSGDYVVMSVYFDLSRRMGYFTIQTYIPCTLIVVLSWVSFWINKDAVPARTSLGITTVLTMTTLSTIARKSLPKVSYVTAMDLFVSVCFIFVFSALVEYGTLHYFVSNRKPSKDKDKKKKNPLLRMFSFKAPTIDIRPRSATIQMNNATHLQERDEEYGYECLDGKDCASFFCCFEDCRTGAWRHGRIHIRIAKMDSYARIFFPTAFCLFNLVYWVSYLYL
# assay-notes: Positive allosteric modulator activity: potentiation of EC20 GABA current in oocytes
# Type: cell-based
# test-context: read-out: GABA α5 Functional Data (potentiation of EC20 GABA); @ 100 nM; ranges

For the molecule `Cc1nc(-c2ncn3c2Cc2cnnn2-c2cc(Cl)ccc2-3)no1` , the measured activation at 0.1 µM on GABAA receptors (α5β2γ2) (Homo sapiens, UniProt P18507+P31644) was 5 to 20%

For the molecule `Cc1noc(-c2ncn3c2Cc2c(Cc4ccc(F)cc4)nnn2-c2cc(OC(F)F)ccc2-3)n1` , the measured activation at 0.1 µM on GABAA receptors (α5β2γ2) (Homo sapiens, UniProt P18507+P31644) was 20 to 50%

For the molecule `COCc1nnc2n1Cc1c(C#Cc3ccnn3C)ncn1-c1ccc(Cl)cc1-2` , the measured activation at 0.1 µM on GABAA receptors (α5β2γ2) (Homo sapiens, UniProt P18507+P31644) was > 50%

For the molecule `COCc1nnc2n1Cc1c(C#Cc3ccc(OC)cn3)ncn1-c1ccc(Cl)cc1-2` , the measured activation at 0.1 µM on GABAA receptors (α5β2γ2) (Homo sapiens, UniProt P18507+P31644) was > 50%

For the molecule `COc1ccc2c(c1)-n1nncc1Cc1c(C3=NC[C@@H](c4ccccc4)O3)ncn1-2` , the measured activation at 0.1 µM on GABAA receptors (α5β2γ2) (Homo sapiens, UniProt P18507+P31644) was 5 to 20%

For the molecule `COCc1nnc2n1Cc1c(C#Cc3ccc(OC(C)C)nc3)ncn1-c1ccc(OC)cc1-2` , the measured activation at 0.1 µM on GABAA receptors (α5β2γ2) (Homo sapiens, UniProt P18507+P31644) was 5 to 20%

For the molecule `COCc1nnc2n1Cc1c(C#Cc3ncc(OC)cn3)ncn1-c1ccc(Cl)cc1-2` , the measured activation at 0.1 µM on GABAA receptors (α5β2γ2) (Homo sapiens, UniProt P18507+P31644) was > 50%

For the molecule `COCc1nnn2c1Cc1c(C#Cc3ccc(OC)nc3)ncn1-c1ccc(OC)cc1-2` , the measured activation at 0.1 µM on GABAA receptors (α5β2γ2) (Homo sapiens, UniProt P18507+P31644) was 20 to 50%

* * *

# assayed-target: GABAA receptors (α5β2γ2) (Homo sapiens, UniProt P18507+P31644)
# Construct: expressed in transfected cells
# assay-notes: Positive allosteric modulator activity: potentiation of EC20 GABA current in oocytes
# Format: cell-based
# test-context: read-out: GABA α5 Functional Data (potentiation of EC20 GABA); @ 100 nM; ranges
Hi there, I'd appreciate the recorded activation at 0.1 µM for every entry that follows.

Sure, the documented activation at 0.1 µM for `COCc1nnc2n1Cc1c(C#Cc3ccc(OC)nn3)ncn1-c1ccc(Cl)cc1-2` is > 50%

Sure, the documented activation at 0.1 µM for `COCc1nnc2n1Cc1c(C#Cc3ccn(C)n3)ncn1-c1ccc(OC)cc1-2` is > 50%

Sure, the documented activation at 0.1 µM for `COCc1nnn2c1Cc1c(C3=NC[C@H](c4ccc(Cl)cc4)O3)ncn1-c1ccc(Cl)cc1-2` is 5 to 20%

Sure, the documented activation at 0.1 µM for `COCc1nnc2n1Cc1c(C#Cc3ccc(OC)cn3)ncn1-c1ccc(OC)cc1-2` is > 50%

Sure, the documented activation at 0.1 µM for `FC(F)(F)c1ccc2c(c1)-n1nncc1Cc1c(C#CC3(c4ccccc4)CC3)ncn1-2` is 5 to 20%

Sure, the documented activation at 0.1 µM for `FC(F)Oc1ccc2c(c1)-n1nncc1Cc1c(C#CC3(c4ccccc4)CC3)ncn1-2` is 5 to 20%

Sure, the documented activation at 0.1 µM for `COCc1nnc2n1Cc1c(C3=NC[C@H](c4ccc(Cl)cc4)O3)ncn1-c1ccc(Cl)cc1-2` is 20 to 50%

Sure, the documented activation at 0.1 µM for `COCc1nnc2n1Cc1c(C3=NC[C@@H](c4ccc(Cl)cc4)O3)ncn1-c1ccc(Cl)cc1-2` is > 50%

Sure, the documented activation at 0.1 µM for `Clc1ccc2c(c1)-n1nncc1Cc1c(COCc3ccccc3)ncn1-2` is 5 to 20%

Sure, the documented activation at 0.1 µM for `COc1ccc2c(c1)-n1nncc1Cc1c(C3=N[C@H](c4ccc(F)cc4)CO3)ncn1-2` is 20 to 50%

Sure, the documented activation at 0.1 µM for `COCc1nnc2n1Cc1c(C#Cc3cnc4occc4c3)ncn1-c1ccc(OC)cc1-2` is 5 to 20%

Sure, the documented activation at 0.1 µM for `COCc1nnc2n1Cc1c(C#Cc3ncc(C)s3)ncn1-c1ccc(Cl)cc1-2` is 20 to 50%

Sure, the documented activation at 0.1 µM for `COCc1nnc2n1Cc1c(C#Cc3cnc(C)s3)ncn1-c1ccc(OC)cc1-2` is > 50%

Sure, the documented activation at 0.1 µM for `Clc1cccc([C@@H]2COC(c3ncn4c3Cc3cnnn3-c3cc(Cl)ccc3-4)=N2)c1` is 5 to 20%

Sure, the documented activation at 0.1 µM for `COCc1nnc2n1Cc1c(C#Cc3cncc(OC)c3)ncn1-c1ccc(OC)cc1-2` is 5 to 20%

Sure, the documented activation at 0.1 µM for COc1cccc(C2CN=C(c3ncn4c3Cc3cnnn3-c3cc(Cl)ccc3-4)O2)n1 (centres unmarked) is 5 to 20%

Sure, the documented activation at 0.1 µM for COc1ccc2c(c1)-n1nncc1Cc1c(C3=NCC(c4ccccn4)O3)ncn1-2 (centres unmarked) is 20 to 50%

Data origin: patent US11414425B2
